Cited source for all entries: patent US8455688B2

Test system: F. solani
experiment: Broth dilution antifungal susceptibility testing, F. solani
Assay type: cell-based
stated_conditions: Fusarium solani, 24 h, isolate 07-1399; 24 hours; 80% inhibition; read-out: minimum inhibitory concentration (MIC)
measured_metric: MIC

Consider the compound shown here: "CN(C)c1ccc(NC(=O)CCCCCNC(=O)c2ccccc2S)cc1" What is its recorded MIC?
> 64 µg/mL

Give the measured MIC of "O=C(NCCCCCCNC(=O)c1ccccc1S)c1ccccc1S" .
> 64 µg/mL

Entry "Nc1ccc(NC(=O)CCCCCNC(=O)c2ccccc2S)cc1" has what MIC?
> 64 µg/mL

###

Tested on: C. albicans
experiment: Broth dilution antifungal susceptibility testing, C. albicans
Format: cell-based, Candida albicans
stated_conditions: Candida albicans, 24 h, isolate 07-3011; 24 hours; 50% reduction in turbidity; read-out: minimum inhibitory concentration (MIC)
Reported MIC is given for each of the following compounds.

1. O=C(NCCCCCCNC(=O)c1ccccc1S)c1ccccc1S    > 64 µg/mL
2. O=C(CCCCCNC(=O)c1cc(Cl)ccc1S)Nc1ccccc1    > 64 µg/mL

Proceed to the following item.
Suppose we examine the compound "COc1ccc(S)c(C(=O)NCCCCCC(=O)Nc2ccccc2)c1" ; what MIC value has been reported?
> 64 µg/mL
